Please respond with reported IC50 for every item in the list.
Test system: HT-1080 cells
Test: Cellular dose response assay, HT-1080 with and without Fer-1
Assay type: cell-based, human
Details: compounds alone; read-out: IC50 (μM) HT1080^a
One number for each entry, in µM.

>  <molecule>
COC(=O)c1ccc([C@@H]2c3[nH]c4ccccc4c3C[C@@H](C(=O)OC)N2C(=O)CCl)cc1 [RSL3, reference compound]

>  <parameter>
IC50

>  <measurement_units>
µM

>  <observed_result>
0.044

$$$$

Now consider a different molecule.
## Task GET /values?readout=IC50&system=HT-1080 cells&item= Cn1c(C(=O)n2ccnc2)cc2ccccc21
## Result 64

* * *

Please respond with reported Microsome Stability t1/2 (min) human for every item in the list.
Experiment: in vitro
Assay type: in vitro ADME, human
Conditions: human, microsomes
# number then unit; no other words

Worked cases, Microsome Stability t1/2 (min) human given:
>  <smiles_input>
Cn1nc(C(=O)NC(C)(C)COC(=O)CCl)c2ccc(-c3ccc4c(c3)OCO4)cc21

>  <Microsome Stability t1/2 (min) human>
250 min

$$$$
>  <smiles_input>
Cn1nc(C(=O)NC(C)(C)COC(=O)CCl)c2ccc(-c3csc4ccccc34)cc21

>  <Microsome Stability t1/2 (min) human>
1.7 min

$$$$
>  <smiles_input>
COc1ccc(-c2ccc3c(C(=O)NC(C)(C)COC(=O)CCl)nn(C)c3c2)cc1C

>  <Microsome Stability t1/2 (min) human>
1.8 min

$$$$
>  <smiles_input>
COc1ccc2cc(C(=O)NC(C)(C)COC(=O)CCl)[nH]c2c1

>  <Microsome Stability t1/2 (min) human>
1.5 min

$$$$
>  <smiles_input>
COc1ccc(-c2ccc3c(C(=O)NC(C)(C)COC(=O)CCl)nn(C)c3c2)cc1Cl

>  <Microsome Stability t1/2 (min) human>
1.6 min

$$$$

For the 3 compounds below, give their Microsome Stability t1/2 (min) human values.
1. CC(C)Oc1ccc(-c2ccc3c(C(=O)NC(C)(C)COC(=O)CCl)nn(C)c3c2)cc1
2. COc1ccc(-c2ccc3c(C(=O)NC(C)(C)CNC(=O)CCl)nn(C)c3c2)cc1Cl
3. COc1ccc(-c2ccc3c(C(=O)NC(C)(C)C(C)(C)OC(=O)CCl)nn(C)c3c2)cc1Cl

## Result
["2.9 min", "15 min", "6.6 min"]

* * *

Target: GPX4 (Homo sapiens)
Sequence (P36969 28-197): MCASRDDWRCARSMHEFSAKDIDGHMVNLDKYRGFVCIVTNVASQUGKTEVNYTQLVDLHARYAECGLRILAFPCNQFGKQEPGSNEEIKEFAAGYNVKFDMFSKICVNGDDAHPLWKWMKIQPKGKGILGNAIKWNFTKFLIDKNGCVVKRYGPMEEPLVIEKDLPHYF
Test: GPX4 activity assay in cell lysates (NADPH-coupled)
Type: biochemical
Parameters: endogenous in cells; host or cells: A-673 cell lysate
Details: 2.5 μM
parameter: GPX4% inhibition at 2.5 μM (%)
Answers are plain numbers, in %.

Worked cases, GPX4% inhibition at 2.5 μM given:
>  <molecule>
Cn1nc(C(=O)NC(C)(C)COC(=O)CCl)c2ccc(-c3ccc(N4CCOCC4)c(Cl)c3)cc21

>  <system_tested>
GPX4 (Homo sapiens)

>  <GPX4% inhibition at 2.5 μM [%]>
77.6

$$$$
>  <molecule>
Cn1nc(C(=O)N2CCC(OC(=O)CCl)C2(C)C)c2ccc(-c3ccc4c(c3)OCO4)cc21 (stereo not shown)

>  <system_tested>
GPX4 (Homo sapiens)

>  <GPX4% inhibition at 2.5 μM [%]>
23.8

$$$$
>  <molecule>
Cn1nc(C(=O)NC(C)(C)COC(=O)CCl)c2ccc(-c3ccc(OC(F)(F)F)c(Cl)c3)cc21

>  <system_tested>
GPX4 (Homo sapiens)

>  <GPX4% inhibition at 2.5 μM [%]>
68.0

$$$$

Now consider a different molecule.
## Task GET /values?readout=GPX4% inhibition at 2.5 μM&system=GPX4 (Homo sapiens)&item= COc1c(Cl)cc(-c2ccc3c(C(=O)NC(C)(C)C(C)(C)OC(=O)CCl)nn(C)c3c2)cc1C(F)(F)F
## Result −17.0

* * *

Please respond with reported Microsome Stability t1/2 (min) mouse for every item in the list.
Assay: in vitro
Type: in vitro ADME, mouse
Conditions: mouse, microsomes

>  <compound>
COc1c(Cl)cc(-c2ccc3c(C(=O)NC(C)(C)C(C)(C)OC(=O)CCl)nn(C)c3c2)cc1Cl [QW-750]

>  <parameter>
Microsome Stability t1/2 (min) mouse

>  <observed_result>
13.5 min

$$$$
>  <compound>
CC(C)(COC(=O)CBr)NC(=O)c1cc2cc([N+](=O)[O-])ccc2[nH]1 [QW-171]

>  <parameter>
Microsome Stability t1/2 (min) mouse

>  <observed_result>
283 min

$$$$
>  <compound>
COc1ccc(-c2ccc3c(C(=O)NC(C)(C)C(C)(C)OC(=O)CCl)nn(C)c3c2)cc1Cl [QW-730]

>  <parameter>
Microsome Stability t1/2 (min) mouse

>  <observed_result>
10.7 min

$$$$

For the 2 compounds below, give their Microsome Stability t1/2 (min) mouse values.
1. Cn1nc(C(=O)NC(C)(C)COC(=O)CCl)c2ccc(-c3ccc(Oc4ccccc4)c(Cl)c3)cc21 [QW-561]
2. Cn1nc(C(=O)NC(C)(C)CNC(=O)CCl)c2ccc(Br)cc21 [QW-624]

## Result
1. 24 min
2. 1.2 min

For the 3 compounds below, give their Microsome Stability t1/2 (min) mouse values.
1. Cn1nc(C(=O)NC(C)(C)COC(=O)CCl)c2ccc(-c3csc4ccccc34)cc21 [QW-505]
2. COc1ccc(-c2ccc3c(C(=O)NC(C)(C)COC(=O)CCl)nn(C)c3c2)cc1 [QW-454]
3. Cn1nc(C(=O)NC(C)(C)COC(=O)CCl)c2ccc(-c3ccc4c(c3)OCO4)cc21 [QW-594]

## Result
1.8 min
1.7 min
137 min

For the 8 compounds below, give their Microsome Stability t1/2 (min) mouse values.
1. COc1ccc(-c2ccc3c(C(=O)NC(C)(C)CNC(=O)CCl)nn(C)c3c2)cc1Cl [QW-628]
2. CC(C)(COC(=O)CCl)NC(=O)c1cc2ccc(Br)cc2[nH]1 [QW-156]
3. COc1c(Cl)cc(-c2ccc3c(C(=O)NC(C)(C)C(C)OC(=O)CCl)nn(C)c3c2)cc1Cl (racemic) [QW-745]
4. Cn1nc(-n2cc(C(C)(C)COC(=O)CCl)nn2)c2ccc(-c3ccc(N4CCOCC4)c(Cl)c3)cc21 [QW-680]
5. CC(C)Oc1ccc(-c2ccc3c(C(=O)NC(C)(C)COC(=O)CCl)nn(C)c3c2)cc1Cl [QW-550]
6. CC(C)(COC(=O)CCl)NC(=O)c1c[nH]c2cc(Br)ccc12 [QW-316]
7. Cn1nc(C(=O)NC(C)(C)COC(=O)CCl)c2ccccc21 [QW-312]
8. CC(C)(COC(=O)CCl)NC(=O)c1n[nH]c2cc(Br)ccc12 [QW-313]

## Result
19 min
>1000 min
13.0 min
26 min
25 min
6 min
1.7 min
12.1 min

For the 5 compounds below, give their Microsome Stability t1/2 (min) mouse values.
1. COc1ccc2cc(C(=O)NC(C)(C)COC(=O)CCl)[nH]c2c1 [QW-152]
2. CC(C)Oc1ccc(-c2ccc3c(C(=O)NC(C)(C)COC(=O)CCl)nn(C)c3c2)cc1 [QW-506]
3. COc1ccc(-c2ccc3c(C(=O)NC(C)(C)COC(=O)CCl)nn(C)c3c2)cc1C [QW-488]
4. Cn1nc(C(=O)NC(C)(C)COC(=O)CCl)c2ccc(-c3ccc(OC(F)(F)F)c(Cl)c3)cc21 [QW-672]
5. Cn1nc(C(=O)NC(C)(C)COC(=O)CCl)c2ccc(-c3cccc(Cl)c3)cc21 [QW-458]

## Result
["0.9 min", "1.7 min", "1.1 min", "19 min", "1.9 min"]

* * *

Biological target: GPX4 (Homo sapiens)
Experiment: GPX4 activity assay in cell lysates (NADPH-coupled)
Type: biochemical
Design: endogenous in cells; host or cells: A-673 cell lysate
Details: 5 μM
parameter: GPX4% inhibition at 5 μM
# number then unit; no other words

Worked cases, GPX4% inhibition at 5 μM given:
>  <smiles_input>
COc1ccc(Cl)cc1-c1ccc2c(C(=O)NC(C)(C)COC(=O)CCl)nn(C)c2c1

>  <system_tested>
GPX4 (Homo sapiens)

>  <GPX4% inhibition at 5 μM>
53.5 ± 6.3%

$$$$
>  <smiles_input>
Cn1nc(C(=O)NC(C)(C)COC(=O)CCl)c2ccc(-c3ccc(OCc4ccccc4)cc3)cc21

>  <system_tested>
GPX4 (Homo sapiens)

>  <GPX4% inhibition at 5 μM>
65.3 ± 3.2%

$$$$
>  <smiles_input>
Cn1nc(C(=O)NC(C)(C)COC(=O)CCl)c2ccc(-c3ccc(C#N)cc3)cc21

>  <system_tested>
GPX4 (Homo sapiens)

>  <GPX4% inhibition at 5 μM>
21.2 ± 5.7%

$$$$
>  <smiles_input>
CSc1ccc(-c2ccc3c(C(=O)NC(C)(C)COC(=O)CCl)nn(C)c3c2)cc1Cl

>  <system_tested>
GPX4 (Homo sapiens)

>  <GPX4% inhibition at 5 μM>
91.2 ± 2.3%

$$$$

For the 4 compounds below, give their GPX4% inhibition at 5 μM values.
1. CC(C)(COC(=O)CCl)NC(=O)c1n[nH]c2cc(-c3ccc(N4CCOCC4)c(Cl)c3)ccc12
2. Cn1nc(C(=O)NC(C)(C)COC(=O)CCl)c2ccc(-c3cc4ccccc4[nH]3)cc21
3. Cn1nc(C(=O)NC(C)(C)COC(=O)CCl)c2ccc(-c3cc4cc(F)ccc4n3C(=O)OC(C)(C)C)cc21
4. CN(C)CCCOc1ccc(-c2ccc3c(C(=O)NC(C)(C)COC(=O)CCl)nn(C)c3c2)cc1

## Result
1. 70.9 ± 6.7%
2. 67.0 ± 4.7%
3. 8.5 ± 13.4%
4. 20.9 ± 14.0%

Cited source: patent US20250248979A1
